These data points were gathered from patent US20150105252A1.

- Test system: barnyardgrass
- method: Test B flood
- Type: in vivo, Echinochloa crus-galli
- particulars: 250 g ai/ha, visual rating on 0 to 100 scale (0 no effect, 100 complete control), 13 to 15 days
- Procedure: Seeds selected from rice (Oryza sativa), sedge, umbrella (small-flower umbrella sedge Cyperus difformis), ducksalad (Heteranthera limosa), and barnyardgrass (Echinochloa crus-galli) were grown to the 2-leaf stage for testing. […] Treated plants and controls were maintained in a greenhouse for 13 to 15 days, after which time all species were compared to controls and visually evaluated. […]
property-label: Plant response rating, Barnyardgrass
Reply: number alone, nothing else.

Before answering, review these 6 worked examples.
| smiles-text | experimental-system | property-label | number |
| --- | --- | --- | --- |
| CCOc1cc(C(=O)NC(C)C)nn1Cc1ccnc(C(F)(F)F)c1 | barnyardgrass | Plant response rating, Barnyardgrass | 75 |
| CCNC(=O)c1cc(CC)n(Cc2ccnc(OC(F)F)c2)n1 | barnyardgrass | Plant response rating, Barnyardgrass | 40 |
| CCOc1cc(C(=O)NC2CC2)nn1Cc1ccnc(OC(F)F)c1 | barnyardgrass | Plant response rating, Barnyardgrass | 40 |
| CCCNC(=O)c1cc(C)n(Cc2ccnc(C(F)(F)F)c2)n1 | barnyardgrass | Plant response rating, Barnyardgrass | 0 |
| CCCc1cc(C(=O)NC2CC2)nn1Oc1ccnc(C(F)(F)F)c1 | barnyardgrass | Plant response rating, Barnyardgrass | 0 |
| CCc1cc(C(=O)NC2CC2)nn1Oc1cccc(C(F)(F)F)c1 | barnyardgrass | Plant response rating, Barnyardgrass | 0 |

Let's switch to this compound now.
Briefly, Plant response rating, Barnyardgrass measured for `CCc1cc(C(=O)NC2CC2)nn1Cc1cc(C(F)(F)C(F)(F)F)nn1C` : 50

====

- Test system: barnyardgrass
- method: Test A postemergence
- Assay type: in vivo, Echinochloa crus-galli
- particulars: Postemergence, 500 g ai/ha; 0 to 100 scale (0 no effect, 100 complete control)
Each entry below carries its recorded Barnyardgrass plant response rating.

Lab note: measured Barnyardgrass plant response rating of CCCNC(=O)c1cc(C)n(Cc2ccnc(C(F)(F)F)c2)n1 [Compound 191] was 100

====

- Tested on: morningglory
- method: Test C preemergence
- Assay type: in vivo, Ipomoea coccinea
- particulars: preemergence, 31 g ai/ha; visual rating, scale 0 to 100 (0 no effect, 100 complete control), 13 to 15 days
Attribute: Morningglory plant response rating
Returns: the value as a bare number; no unit string appended.

Here are 3 compounds together with their reported answers.
| smiles-text | Morningglory plant response rating |
| --- | --- |
| CCCNC(=O)c1cc(CCCl)n(Cc2ccnc(C(F)(F)F)c2)n1 | 80 |
| CCCNC(=O)c1cc(CC)n(Cc2ccnc(OC(F)F)c2)n1 | 60 |
| CCCc1cc(C(=O)NCC(F)(F)F)nn1Cc1ccnc(C(F)(F)F)c1 | 100 |

Value sought: Morningglory plant response rating, system morningglory, item `CCNC(=O)c1cc(CC)n(Cc2ccnc(C(F)(F)F)c2)n1` . Result: 98

The compound `CCc1cc(C(=O)NCC2CC2)nn1Cc1ccnc(C(F)(F)F)c1` on morningglory: Morningglory plant response rating was 60

====

- Test system: nutsedge, yellow
- method: Test C postemergence
- Assay type: in vivo, Cyperus esculentus
- particulars: postemergence; 125 g ai/ha; scale 0 to 100, 0 no effect, 100 complete control
property-label: Plant response rating, Nutsedge, Yellow
# output: bare number, no unit

| smiles-text | experimental-system | Plant response rating, Nutsedge, Yellow |
| --- | --- | --- |
| CCCc1cc(C(=O)NCC)nn1Cc1cc(C(F)(F)F)nn1C | nutsedge, yellow | 5 |
| CCCNC(=O)c1cc(CCC)n(Cc2cc(C(F)(F)F)nn2C)n1 | nutsedge, yellow | 5 |
| CCOc1cc(C(=O)NC(C)C)nn1Cc1ccnc(C(F)(F)F)c1 | nutsedge, yellow | 5 |
| CCCNC(=O)c1cc(CC)n(Cc2ccnc(OC(F)F)c2)n1 | nutsedge, yellow | 20 |

In plain terms, `CCOc1cc(C(=O)NCC(F)(F)F)nn1Cc1ccnc(C(F)(F)F)c1` has a documented Plant response rating, Nutsedge, Yellow of 10
